- Assay comment: Clearance in human liver microsomes at 1 uM incubated for 60 mins followed by NADPH generating system addition and measured by LC-MS/MS analysis
- Type: ADME, Microsome
- Measurement setup: read-out: CLH
Observable: microsomal CLint at 1 µM (µL/min/mg)

{"Record smiles": "CCC[C@@H]1C[C@@H](NC(=O)c2ccc(C(F)(F)F)[nH]c2=O)c2cc(C)ccc2N1", "microsomal CLint at 1 µM, µL/min/mg": 17}

(1) CCC[C@H]1C[C@@H](NC(=O)c2ccc(C(F)(F)F)[nH]c2=O)c2cc(C)ccc2N1
(2) CCC[C@H]1Oc2ccc(C)cc2[C@@H]1NC(=O)c1ccc(C(F)(F)F)[nH]c1=O
Query block: Between the entries labeled 1 and 2 , whose measured microsomal CLint at 1 µM is lower? Write the label of whichever entry you select.
Result block: 1
